Data credit: paper PMC10753557

- target.entity: COX-2 (Homo sapiens, UniProt P35354)
- Sequence (P35354 18-604): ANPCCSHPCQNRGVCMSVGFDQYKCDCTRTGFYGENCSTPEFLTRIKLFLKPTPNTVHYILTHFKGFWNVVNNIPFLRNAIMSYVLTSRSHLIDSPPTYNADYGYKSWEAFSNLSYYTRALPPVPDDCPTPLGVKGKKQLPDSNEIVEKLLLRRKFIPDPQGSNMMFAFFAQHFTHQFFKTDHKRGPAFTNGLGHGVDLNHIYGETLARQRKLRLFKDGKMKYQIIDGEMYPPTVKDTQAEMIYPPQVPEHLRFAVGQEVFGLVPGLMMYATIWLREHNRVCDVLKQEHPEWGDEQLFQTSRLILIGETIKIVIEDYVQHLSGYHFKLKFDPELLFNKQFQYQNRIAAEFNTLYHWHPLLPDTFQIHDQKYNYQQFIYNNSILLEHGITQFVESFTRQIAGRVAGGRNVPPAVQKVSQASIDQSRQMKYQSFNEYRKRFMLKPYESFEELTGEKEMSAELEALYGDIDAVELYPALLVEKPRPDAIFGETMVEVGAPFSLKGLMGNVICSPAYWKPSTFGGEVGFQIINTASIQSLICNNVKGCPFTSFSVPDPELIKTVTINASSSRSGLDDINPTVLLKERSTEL
endpoint.label: IC50 (nM)
Numbers only, in nM.

Please report IC50 for the following compound: `CCOC(=O)c1cc(-c2c(OC)cccc2OC)n(CC(=O)O)c1C`
188
